biological target: Bifunctional epoxide hydrolase 2 (Homo sapiens); assay: Inhibition of soluble epoxide hydrolase (unknown origin) using 14,15-EET as substrate incubated for 20 mins by LC-MS/MS analysis
The following compounds are listed with their measured IC50 values.
A number alone suffices; assume nM.

Example cases with answers are listed next.
>>> print(df.to_string())
                                   compound  unit  value
0     O=C(NCCCc1ccccc1)N1CCC[C@@H]1c1ccccc1    nM   1510
1  C[C@H](NC(=O)NCCCc1ccccc1)c1cccc2ccccc12    nM     43
2              CC[C@H](C)NC(=O)NCCCc1ccccc1    nM     63
3  C[C@H](NC(=O)NCCCc1ccc(S(N)(=O)=O)cc1)c1ccccc1    nM     22
4       C[C@@H](NC(=O)NCCCc1ccccc1)c1ccccc1    nM   1730
5      O=C(NCCCc1ccccc1)N[C@@H](CO)c1ccccc1    nM   2740
6      O=C(NCCCc1ccccc1)N1CCC[C@H]1c1ccccc1    nM    332
7        CCC(C)NC(=O)NCCCc1ccccc1 (racemic)    nM    650

Reported IC50 for O=C(NCCCc1ccccc1)N[C@@H]1CCCc2ccccc21 was 13

---

target: Bifunctional epoxide hydrolase 2 (Homo sapiens, UniProt P34913); experiment: Inhibition of soluble epoxide hydrolase (unknown origin) using 14,15-EET as substrate incubated for 20 mins by LC-MS/MS analysis
Sequence (P34913 whole entry): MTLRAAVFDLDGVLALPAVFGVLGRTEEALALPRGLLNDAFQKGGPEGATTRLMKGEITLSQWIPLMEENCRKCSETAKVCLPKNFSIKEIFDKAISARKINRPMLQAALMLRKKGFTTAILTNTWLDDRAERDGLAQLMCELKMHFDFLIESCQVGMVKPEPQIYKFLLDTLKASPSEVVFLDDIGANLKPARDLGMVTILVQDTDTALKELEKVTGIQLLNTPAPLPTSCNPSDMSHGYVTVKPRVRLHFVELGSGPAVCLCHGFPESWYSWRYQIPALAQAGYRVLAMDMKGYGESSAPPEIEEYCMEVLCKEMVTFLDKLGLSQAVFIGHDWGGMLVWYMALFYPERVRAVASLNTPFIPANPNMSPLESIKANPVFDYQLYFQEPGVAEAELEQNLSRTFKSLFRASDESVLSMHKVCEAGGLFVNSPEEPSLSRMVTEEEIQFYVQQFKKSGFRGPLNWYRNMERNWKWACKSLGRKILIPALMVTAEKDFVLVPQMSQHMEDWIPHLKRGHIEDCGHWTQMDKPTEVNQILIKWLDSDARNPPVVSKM
Below, each entry is listed with its recorded pIC50.
By convention, pIC50 is the negative base-10 log of a molar concentration.

>>> print(df.to_string())
                                 cpd_smiles  value
0      O=C(NCCCc1ccccc1)N[C@@H]1CCc2ccccc21   7.66
1       C[C@@H](NC(=O)NCCCc1ccccc1)C1CCCCC1   6.52
2  C[C@@H](NC(=O)NCCCc1ccc(S(N)(=O)=O)cc1)c1ccccc1   5.69
3        C[C@H](NC(=O)NCCCc1ccccc1)c1ccccc1   7.36

Kindly consider the entry below.
// recorded pIC50 for C[C@H](NC(=O)NCCCc1ccccc1)C1CCCCC1 : 6.74
